target: UniProtKB P30530; test: biochemical; design: species or system HEK293/K-562/placenta mixed human extract; Kinobeads chemoproteomic competition binding, quantified by TMT LC-MS/MS, dose response up to 20 uM
Quantity: IC50

# Compound, Quantity, Val
records = [
    ("COc1ccccc1-c1n[nH]c2nc(N[C@H]3CC[C@H](NS(=O)(=O)CCC(F)(F)F)CC3)nc(OC)c12 [compound 31]", "IC50", "≥ 20 µM"),
]

====

molecular target: BRAF (Homo sapiens); experiment: biochemical; design: species or system HEK293/K-562/placenta mixed human extract; Kinobeads chemoproteomic competition binding, quantified by TMT LC-MS/MS, dose response up to 20 uM
Sequence (P15056 whole entry): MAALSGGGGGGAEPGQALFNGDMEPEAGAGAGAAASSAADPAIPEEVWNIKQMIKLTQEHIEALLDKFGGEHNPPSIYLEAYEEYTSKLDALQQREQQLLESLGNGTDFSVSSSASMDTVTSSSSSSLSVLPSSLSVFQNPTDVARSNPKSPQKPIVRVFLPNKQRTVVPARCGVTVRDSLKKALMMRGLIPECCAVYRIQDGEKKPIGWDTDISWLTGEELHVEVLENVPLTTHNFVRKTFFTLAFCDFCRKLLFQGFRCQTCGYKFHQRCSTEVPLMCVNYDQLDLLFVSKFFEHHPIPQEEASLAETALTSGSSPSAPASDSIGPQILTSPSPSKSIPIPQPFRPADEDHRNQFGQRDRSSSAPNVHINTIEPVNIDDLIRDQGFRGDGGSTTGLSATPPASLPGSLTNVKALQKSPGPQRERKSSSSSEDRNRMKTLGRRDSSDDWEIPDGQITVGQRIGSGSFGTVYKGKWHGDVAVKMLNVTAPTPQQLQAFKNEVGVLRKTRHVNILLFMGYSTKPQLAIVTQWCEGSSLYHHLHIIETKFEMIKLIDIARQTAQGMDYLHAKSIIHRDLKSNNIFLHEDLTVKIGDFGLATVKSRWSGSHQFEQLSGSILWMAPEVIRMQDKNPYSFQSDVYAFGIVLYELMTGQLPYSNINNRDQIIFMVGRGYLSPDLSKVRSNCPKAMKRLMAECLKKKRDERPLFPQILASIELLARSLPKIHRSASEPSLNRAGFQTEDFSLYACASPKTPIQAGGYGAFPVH
pIC50: −log10 of the molar value.

# Molecule, pIC50
data = [
    ("COc1nc(N[C@H]2CC[C@H](NS(=O)(=O)CC(C)C)CC2)nc2[nH]nc(N3CCOC[C@H]3C)c12 [compound 39]", "≤ 4.70"),
]

====

target: DAPK1 (Homo sapiens); assay: biochemical; design: species or system HEK293/K-562/placenta mixed human extract; Kinobeads chemoproteomic competition binding, quantified by TMT LC-MS/MS, dose response up to 20 uM
Sequence (P53355 whole entry): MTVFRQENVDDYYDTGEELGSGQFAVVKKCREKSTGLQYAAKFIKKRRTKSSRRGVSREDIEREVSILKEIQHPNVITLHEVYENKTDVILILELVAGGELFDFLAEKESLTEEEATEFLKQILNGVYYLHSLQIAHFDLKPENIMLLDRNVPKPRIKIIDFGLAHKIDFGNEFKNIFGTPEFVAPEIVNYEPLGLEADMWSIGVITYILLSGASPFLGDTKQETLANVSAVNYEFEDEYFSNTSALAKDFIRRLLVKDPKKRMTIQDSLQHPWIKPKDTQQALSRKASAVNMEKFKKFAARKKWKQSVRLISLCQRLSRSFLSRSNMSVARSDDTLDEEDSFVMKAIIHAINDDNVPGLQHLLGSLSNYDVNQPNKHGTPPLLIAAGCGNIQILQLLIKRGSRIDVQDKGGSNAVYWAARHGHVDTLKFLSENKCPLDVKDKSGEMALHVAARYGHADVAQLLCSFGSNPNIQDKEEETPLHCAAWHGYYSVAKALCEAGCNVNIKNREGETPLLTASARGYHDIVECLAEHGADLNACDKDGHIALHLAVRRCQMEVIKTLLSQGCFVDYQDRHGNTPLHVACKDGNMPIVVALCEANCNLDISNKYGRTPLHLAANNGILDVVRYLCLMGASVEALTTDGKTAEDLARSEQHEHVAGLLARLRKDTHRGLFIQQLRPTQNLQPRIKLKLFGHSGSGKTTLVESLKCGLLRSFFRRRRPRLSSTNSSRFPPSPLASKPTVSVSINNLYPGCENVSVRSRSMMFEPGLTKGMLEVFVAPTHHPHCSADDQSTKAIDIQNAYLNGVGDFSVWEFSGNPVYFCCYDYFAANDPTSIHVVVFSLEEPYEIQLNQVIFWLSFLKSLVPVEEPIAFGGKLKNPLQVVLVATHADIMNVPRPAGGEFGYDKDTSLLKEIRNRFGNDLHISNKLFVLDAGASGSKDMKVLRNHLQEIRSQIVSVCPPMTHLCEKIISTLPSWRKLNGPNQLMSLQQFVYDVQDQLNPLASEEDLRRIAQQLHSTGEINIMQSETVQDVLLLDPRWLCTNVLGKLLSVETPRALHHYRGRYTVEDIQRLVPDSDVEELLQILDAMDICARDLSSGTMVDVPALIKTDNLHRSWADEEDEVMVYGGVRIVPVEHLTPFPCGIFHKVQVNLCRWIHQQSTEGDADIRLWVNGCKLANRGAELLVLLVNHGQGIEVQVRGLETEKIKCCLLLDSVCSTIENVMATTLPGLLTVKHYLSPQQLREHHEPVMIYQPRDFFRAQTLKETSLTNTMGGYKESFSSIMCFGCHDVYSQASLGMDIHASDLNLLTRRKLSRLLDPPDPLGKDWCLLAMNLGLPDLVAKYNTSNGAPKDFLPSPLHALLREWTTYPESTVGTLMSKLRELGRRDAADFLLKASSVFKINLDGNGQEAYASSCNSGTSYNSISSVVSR
pIC50: −log10 of the molar value.
Quantity: pIC50

# Compound structure, Assay system, Val
measured = [
    ("COc1nc(N[C@H]2CC[C@H](NS(=O)(=O)CC(C)C)CC2)nc2[nH]nc(N3CCOC[C@H]3C)c12", "DAPK1 (Homo sapiens)", "≤ 4.70"),
]

====

Molecular target: TEC (Homo sapiens)
Sequence (P42680 1-631): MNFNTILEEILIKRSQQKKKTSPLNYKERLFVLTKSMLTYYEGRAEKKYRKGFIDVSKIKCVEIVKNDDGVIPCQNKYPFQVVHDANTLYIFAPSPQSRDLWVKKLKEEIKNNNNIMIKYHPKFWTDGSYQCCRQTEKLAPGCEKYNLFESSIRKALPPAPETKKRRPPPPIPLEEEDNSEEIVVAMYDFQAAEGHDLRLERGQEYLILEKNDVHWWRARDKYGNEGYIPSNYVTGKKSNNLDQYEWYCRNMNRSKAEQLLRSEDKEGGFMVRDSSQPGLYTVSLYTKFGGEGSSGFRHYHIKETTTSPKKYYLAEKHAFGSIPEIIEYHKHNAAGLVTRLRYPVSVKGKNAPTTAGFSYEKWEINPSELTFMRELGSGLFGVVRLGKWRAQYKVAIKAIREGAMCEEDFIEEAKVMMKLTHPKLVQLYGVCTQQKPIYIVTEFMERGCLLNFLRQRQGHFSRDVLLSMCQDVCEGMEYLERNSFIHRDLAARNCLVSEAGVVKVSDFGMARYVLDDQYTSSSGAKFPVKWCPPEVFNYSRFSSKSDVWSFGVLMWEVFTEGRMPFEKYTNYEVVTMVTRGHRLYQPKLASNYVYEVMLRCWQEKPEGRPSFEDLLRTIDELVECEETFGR
Assay: biochemical
Parameters: species or system HEK293/K-562/placenta mixed human extract; Kinobeads chemoproteomic competition binding, quantified by TMT LC-MS/MS, dose response up to 20 uM
pIC50: −log10 of the molar value.
Quantity: pIC50

# Compound structure, Val
records = [
    ("COc1nc(N[C@H]2CC[C@H](NS(=O)(=O)CC(C)C)CC2)nc2[nH]nc(N3CCOC[C@H]3C)c12", "≤ 4.70"),
]

====

Biological target: AXL (Homo sapiens)
Sequence (P30530 1-894): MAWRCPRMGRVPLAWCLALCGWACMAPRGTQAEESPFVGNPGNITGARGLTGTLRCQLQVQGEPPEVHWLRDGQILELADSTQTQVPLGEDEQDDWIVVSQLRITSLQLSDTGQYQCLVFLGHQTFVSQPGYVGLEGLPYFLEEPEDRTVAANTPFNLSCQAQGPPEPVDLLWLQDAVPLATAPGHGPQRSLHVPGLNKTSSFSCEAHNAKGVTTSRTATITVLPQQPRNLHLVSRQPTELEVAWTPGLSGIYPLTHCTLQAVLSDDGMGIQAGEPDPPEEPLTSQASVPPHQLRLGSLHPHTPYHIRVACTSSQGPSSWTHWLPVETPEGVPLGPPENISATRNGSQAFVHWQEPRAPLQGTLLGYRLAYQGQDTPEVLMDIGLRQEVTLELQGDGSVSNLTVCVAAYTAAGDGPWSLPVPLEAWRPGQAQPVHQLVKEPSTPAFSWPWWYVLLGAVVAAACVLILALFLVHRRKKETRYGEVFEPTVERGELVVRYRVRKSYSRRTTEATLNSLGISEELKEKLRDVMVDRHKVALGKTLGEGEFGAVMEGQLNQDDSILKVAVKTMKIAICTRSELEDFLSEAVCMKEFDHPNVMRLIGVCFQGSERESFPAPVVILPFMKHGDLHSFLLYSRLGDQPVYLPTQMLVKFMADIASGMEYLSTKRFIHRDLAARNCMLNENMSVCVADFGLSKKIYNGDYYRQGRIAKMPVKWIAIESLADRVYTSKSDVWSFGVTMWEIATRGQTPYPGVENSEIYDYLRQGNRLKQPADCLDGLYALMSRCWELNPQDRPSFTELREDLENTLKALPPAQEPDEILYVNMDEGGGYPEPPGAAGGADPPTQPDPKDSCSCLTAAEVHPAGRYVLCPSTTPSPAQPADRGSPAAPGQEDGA
Assay: biochemical
Design: species or system HEK293/K-562/placenta mixed human extract; Kinobeads chemoproteomic competition binding, quantified by TMT LC-MS/MS, dose response up to 20 uM

# Compound structure, IC50
rows = [
    ("COc1nc(N[C@H]2CC[C@H](NS(=O)(=O)CC(C)C)CC2)nc2[nH]nc(N3CCOC[C@H]3C)c12", "≥ 20 µM"),
]

====

target: NUAK1 (Homo sapiens); test: biochemical; design: species or system HEK293/K-562/placenta mixed human extract; Kinobeads chemoproteomic competition binding, quantified by TMT LC-MS/MS, dose response up to 20 uM
Sequence (O60285 whole entry): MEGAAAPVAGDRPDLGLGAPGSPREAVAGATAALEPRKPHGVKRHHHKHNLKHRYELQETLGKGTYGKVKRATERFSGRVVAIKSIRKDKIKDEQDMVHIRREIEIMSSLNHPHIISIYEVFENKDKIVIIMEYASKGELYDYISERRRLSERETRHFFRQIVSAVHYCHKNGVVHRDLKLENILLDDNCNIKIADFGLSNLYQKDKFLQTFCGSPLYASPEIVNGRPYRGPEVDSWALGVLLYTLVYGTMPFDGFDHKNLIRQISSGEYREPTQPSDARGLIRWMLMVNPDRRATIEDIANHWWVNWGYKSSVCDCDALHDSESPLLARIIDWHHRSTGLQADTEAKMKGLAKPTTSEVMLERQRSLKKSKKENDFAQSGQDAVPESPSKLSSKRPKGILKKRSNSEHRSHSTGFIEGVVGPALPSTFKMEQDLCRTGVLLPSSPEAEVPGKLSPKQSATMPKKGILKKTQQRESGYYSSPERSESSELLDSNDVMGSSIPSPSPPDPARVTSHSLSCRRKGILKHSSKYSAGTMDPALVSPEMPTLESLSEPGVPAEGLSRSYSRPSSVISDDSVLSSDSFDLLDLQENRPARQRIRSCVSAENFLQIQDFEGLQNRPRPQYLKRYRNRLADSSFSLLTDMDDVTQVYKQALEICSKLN
Quantity: IC50

# Compound structure, Val
measured = [
    ("COc1ccccc1-c1n[nH]c2nc(N[C@H]3CC[C@H](NS(=O)(=O)CCC(F)(F)F)CC3)nc(OC)c12", "≥ 20 µM"),
]

====

biological target: HIPK3 (Homo sapiens, UniProt Q9H422); experiment: biochemical; parameters: species or system HEK293/K-562/placenta mixed human extract; Kinobeads chemoproteomic competition binding, quantified by TMT LC-MS/MS, dose response up to 20 uM
Sequence (Q9H422 whole entry): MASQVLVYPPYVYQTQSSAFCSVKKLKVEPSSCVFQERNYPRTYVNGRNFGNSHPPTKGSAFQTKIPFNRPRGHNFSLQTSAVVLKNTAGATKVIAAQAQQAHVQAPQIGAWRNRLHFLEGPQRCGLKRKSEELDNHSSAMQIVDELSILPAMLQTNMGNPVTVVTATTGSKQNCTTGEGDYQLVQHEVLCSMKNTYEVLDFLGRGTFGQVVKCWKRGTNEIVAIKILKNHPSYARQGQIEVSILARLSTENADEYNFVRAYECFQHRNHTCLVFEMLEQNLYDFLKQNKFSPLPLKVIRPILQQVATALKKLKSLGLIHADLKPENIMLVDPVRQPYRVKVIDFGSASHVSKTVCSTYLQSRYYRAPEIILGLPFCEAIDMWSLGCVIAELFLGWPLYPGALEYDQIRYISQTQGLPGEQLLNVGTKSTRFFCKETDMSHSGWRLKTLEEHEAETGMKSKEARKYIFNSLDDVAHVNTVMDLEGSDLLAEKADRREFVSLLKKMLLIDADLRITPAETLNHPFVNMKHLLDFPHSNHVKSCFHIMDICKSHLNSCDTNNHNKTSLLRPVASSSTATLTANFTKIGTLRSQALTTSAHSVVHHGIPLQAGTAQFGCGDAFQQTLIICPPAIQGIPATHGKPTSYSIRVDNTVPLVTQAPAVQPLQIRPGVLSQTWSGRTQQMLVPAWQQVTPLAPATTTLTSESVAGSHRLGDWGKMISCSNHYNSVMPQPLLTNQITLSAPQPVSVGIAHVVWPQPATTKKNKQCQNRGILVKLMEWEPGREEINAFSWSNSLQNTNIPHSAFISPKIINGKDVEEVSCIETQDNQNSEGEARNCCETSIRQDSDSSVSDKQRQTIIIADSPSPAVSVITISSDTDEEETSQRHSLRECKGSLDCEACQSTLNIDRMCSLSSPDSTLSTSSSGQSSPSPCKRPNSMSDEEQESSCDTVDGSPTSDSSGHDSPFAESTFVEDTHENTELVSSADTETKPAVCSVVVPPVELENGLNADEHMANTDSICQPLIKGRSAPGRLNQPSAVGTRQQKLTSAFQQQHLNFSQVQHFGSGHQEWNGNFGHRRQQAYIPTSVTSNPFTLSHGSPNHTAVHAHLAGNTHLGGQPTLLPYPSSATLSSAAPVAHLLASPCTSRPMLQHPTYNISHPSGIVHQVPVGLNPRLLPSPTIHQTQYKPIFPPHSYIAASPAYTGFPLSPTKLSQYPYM

# Compound structure, IC50
data = [
    ("COc1nc(N[C@H]2CC[C@H](NS(=O)(=O)CC(C)C)CC2)nc2[nH]nc(N3CCOC[C@H]3C)c12", "≥ 20 µM"),
]

====

Target: NUAK2 (Homo sapiens)
Sequence (Q9H093 1-628): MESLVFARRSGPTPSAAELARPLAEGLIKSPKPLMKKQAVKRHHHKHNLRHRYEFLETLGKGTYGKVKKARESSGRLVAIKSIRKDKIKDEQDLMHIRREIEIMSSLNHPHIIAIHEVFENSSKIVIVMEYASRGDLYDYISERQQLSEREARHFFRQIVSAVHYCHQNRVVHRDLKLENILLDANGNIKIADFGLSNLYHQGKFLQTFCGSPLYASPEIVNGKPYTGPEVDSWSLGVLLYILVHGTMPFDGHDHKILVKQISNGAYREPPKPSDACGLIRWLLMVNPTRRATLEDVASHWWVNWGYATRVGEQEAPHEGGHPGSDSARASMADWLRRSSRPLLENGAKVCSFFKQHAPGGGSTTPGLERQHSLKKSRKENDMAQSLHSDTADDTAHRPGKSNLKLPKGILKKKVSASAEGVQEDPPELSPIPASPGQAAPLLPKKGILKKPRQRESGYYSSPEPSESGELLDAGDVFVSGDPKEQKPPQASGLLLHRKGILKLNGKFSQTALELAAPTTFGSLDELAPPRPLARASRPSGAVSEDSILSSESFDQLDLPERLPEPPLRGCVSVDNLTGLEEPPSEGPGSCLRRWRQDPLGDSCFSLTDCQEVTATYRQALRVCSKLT
pIC50: −log10 of the molar value.

# Compound structure, pIC50
data = [
    ("COc1nc(N[C@H]2CC[C@H](NS(=O)(=O)CC(C)C)CC2)nc2[nH]nc(N3CCOC[C@H]3C)c12", "≤ 4.70"),
]

====

Target: UniProt Q04771
Sequence (Q04771 1-509): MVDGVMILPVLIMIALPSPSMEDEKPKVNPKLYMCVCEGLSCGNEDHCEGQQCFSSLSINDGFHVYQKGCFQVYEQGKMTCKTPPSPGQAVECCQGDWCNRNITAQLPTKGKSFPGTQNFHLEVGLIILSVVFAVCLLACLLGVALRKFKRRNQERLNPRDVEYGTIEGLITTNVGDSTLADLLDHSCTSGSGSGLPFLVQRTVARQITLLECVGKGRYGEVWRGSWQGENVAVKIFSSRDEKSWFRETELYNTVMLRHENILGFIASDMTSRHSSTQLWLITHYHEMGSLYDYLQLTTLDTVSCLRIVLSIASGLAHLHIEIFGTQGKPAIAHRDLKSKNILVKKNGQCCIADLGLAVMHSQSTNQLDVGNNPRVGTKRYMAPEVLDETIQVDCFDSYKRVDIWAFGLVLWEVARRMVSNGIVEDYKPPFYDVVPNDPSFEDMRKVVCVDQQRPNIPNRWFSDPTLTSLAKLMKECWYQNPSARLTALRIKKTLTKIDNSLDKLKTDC
Test: biochemical
Design: species or system HEK293/K-562/placenta mixed human extract; Kinobeads chemoproteomic competition binding, quantified by TMT LC-MS/MS, dose response up to 20 uM

# Compound, IC50
measured = [
    ("COc1ccccc1-c1n[nH]c2nc(N[C@H]3CC[C@H](NS(=O)(=O)CCC(F)(F)F)CC3)nc(OC)c12 [compound 31]", "≥ 20 µM"),
]
